- Species on record: Rattus norvegicus
- assayInfo: Open TG-GATES - Regimen: Single
- Type: toxicity, organism-based, Sprague-Dawley
- Set-up: regimen Single, gender Male, age 6 weeks
- experimentalContext: in vivo, po, 1000 mg/kg, 24 h, tissue Blood, route gavage, dose level High
Rule: fulfilled for APTT not less than 20 s, not fulfilled for anything less.

>  <compound>
Clc1ccccc1CN1CCc2sccc2C1

>  <classLabel>
fulfilled

$$$$
>  <compound>
O=C(O)c1cc(/N=N/c2ccc(S(=O)(=O)Nc3ccccn3)cc2)ccc1O

>  <classLabel>
not fulfilled

$$$$
>  <compound>
C[C@H](CS)C(=O)N1CCC[C@H]1C(=O)O

>  <classLabel>
not fulfilled

$$$$
>  <compound>
CCc1cc(C(N)=S)ccn1 [ETHIONAMIDE]

>  <classLabel>
not fulfilled

$$$$
>  <compound>
O=C(O)c1cn(C2CC2)c2cc(N3CCNCC3)c(F)cc2c1=O

>  <classLabel>
not fulfilled

$$$$

###

- Species: Rattus norvegicus
- assayInfo: Open TG-GATES - Regimen: Single
- Type: toxicity, organism-based, Sprague-Dawley
- Parameters: regimen Single, gender Male, age 6 weeks
- experimentalContext: in vivo, po, 300 mg/kg, 9 h, tissue Plasma, route gavage, dose level Middle
Measured TBIL, listed per entry.

>  <compound>
Clc1ccccc1CN1CCc2sccc2C1

>  <unitsOfMeasure>
mg/dL

>  <TBIL>
0.1

$$$$
>  <compound>
C[C@H](CS)C(=O)N1CCC[C@H]1C(=O)O

>  <unitsOfMeasure>
mg/dL

>  <TBIL>
0.3

$$$$
>  <compound>
O=C(O)c1cc(/N=N/c2ccc(S(=O)(=O)Nc3ccccn3)cc2)ccc1O

>  <unitsOfMeasure>
mg/dL

>  <TBIL>
0.1

$$$$
>  <compound>
O=C(O)c1cn(C2CC2)c2cc(N3CCNCC3)c(F)cc2c1=O

>  <unitsOfMeasure>
mg/dL

>  <TBIL>
0.3

$$$$
>  <compound>
CCc1cc(C(N)=S)ccn1 [ETHIONAMIDE]

>  <unitsOfMeasure>
mg/dL

>  <TBIL>
0.4

$$$$

###

- Organism: Rattus norvegicus
- assayInfo: Open TG-GATES - Regimen: Daily Repeat
- Format: toxicity, organism-based, Sprague-Dawley
- Set-up: regimen Daily Repeat, gender Male, age 6 weeks
- experimentalContext: in vivo, po, 0 mg/kg, […], tissue Plasma, route gavage, dose level Control, time 7 day

>  <compound>
O=C(O)c1cn(C2CC2)c2cc(N3CCNCC3)c(F)cc2c1=O [CIPROFLOXACIN]

>  <unitsOfMeasure>
g/dL

>  <TP>
5.7

$$$$
>  <compound>
C[C@H](CS)C(=O)N1CCC[C@H]1C(=O)O [CAPTOPRIL]

>  <unitsOfMeasure>
g/dL

>  <TP>
5.8

$$$$
>  <compound>
O=C(O)c1cc(/N=N/c2ccc(S(=O)(=O)Nc3ccccn3)cc2)ccc1O [SULFASALAZINE]

>  <unitsOfMeasure>
g/dL

>  <TP>
5.9

$$$$
>  <compound>
CN(C)CCC=C1c2ccccc2CCc2ccccc21 [AMITRIPTYLINE]

>  <unitsOfMeasure>
g/dL

>  <TP>
5.8

$$$$
>  <compound>
Cn1c(=O)c2[nH]cnc2n(C)c1=O.O [THEOPHYLLINE]

>  <unitsOfMeasure>
g/dL

>  <TP>
5.6

$$$$
>  <compound>
NC(=O)N1c2ccccc2C=Cc2ccccc21 [CARBAMAZEPINE]

>  <unitsOfMeasure>
g/dL

>  <TP>
5.8

$$$$
>  <compound>
CSc1ccc2c(c1)N(CCC1CCCCN1C)c1ccccc1S2 (stereo not given) [THIORIDAZINE]

>  <unitsOfMeasure>
g/dL

>  <TP>
5.9

$$$$
>  <compound>
CCc1cc(C(N)=S)ccn1 [ETHIONAMIDE]

>  <unitsOfMeasure>
g/dL

>  <TP>
6

$$$$
>  <compound>
COc1ccc(Cc2nccc3cc(OC)c(OC)cc23)cc1OC [PAPAVERINE]

>  <unitsOfMeasure>
g/dL

>  <TP>
5.5

$$$$
>  <compound>
NC(=O)N/N=C/c1ccc([N+](=O)[O-])o1 [NITROFURAZONE]

>  <unitsOfMeasure>
g/dL

>  <TP>
5.6

$$$$
>  <compound>
Clc1ccccc1CN1CCc2sccc2C1 [TICLOPIDINE]

>  <unitsOfMeasure>
g/dL

>  <TP>
5.7

$$$$
>  <compound>
COc1ccc2c(c1)c(CC(=O)O)c(C)n2C(=O)c1ccc(Cl)cc1 [INDOMETHACIN]

>  <unitsOfMeasure>
g/dL

>  <TP>
6.1

$$$$
>  <compound>
CO[C@H]1/C=C/O[C@@]2(C)Oc3c(C)c(O)c4c(O)c(c(/C=N/N5CCN(C)CC5)c(O)c4c3C2=O)NC(=O)/C(C)=C\C=C\[C@H](C)[C@H](O)[C@@H](C)[C@@H](O)[C@@H](C)[C@H](OC(C)=O)[C@@H]1C [RIFAMPIN]

>  <unitsOfMeasure>
g/dL

>  <TP>
6.1

$$$$
>  <compound>
CC(=O)Oc1ccccc1C(=O)O [ASPIRIN]

>  <unitsOfMeasure>
g/dL

>  <TP>
5.5

$$$$
>  <compound>
CCCC(CCC)C(=O)O [VALPROIC ACID]

>  <unitsOfMeasure>
g/dL

>  <TP>
5.5

$$$$

###

- Organism: Rattus norvegicus
- assayInfo: Open TG-GATES - Regimen: Single
- Assay type: toxicity, organism-based, Sprague-Dawley
- Design: regimen Single, gender Male, age 6 weeks
- experimentalContext: in vivo, po, 300 mg/kg, 6 h, tissue Liver, route gavage, dose level Middle
Listing of entries alongside the reported LIVER.
measurementType: LIVER

>  <molecule>
CCc1cc(C(N)=S)ccn1 [ETHIONAMIDE]

>  <result>
10.7 g

$$$$
>  <molecule>
Clc1ccccc1CN1CCc2sccc2C1

>  <result>
9.1 g

$$$$
>  <molecule>
O=C(O)c1cn(C2CC2)c2cc(N3CCNCC3)c(F)cc2c1=O

>  <result>
8.1 g

$$$$
>  <molecule>
O=C(O)c1cc(/N=N/c2ccc(S(=O)(=O)Nc3ccccn3)cc2)ccc1O

>  <result>
9.8 g

$$$$

###

- Organism: Rattus norvegicus
- assayInfo: Open TG-GATES - Regimen: Single
- Assay type: toxicity, organism-based, Sprague-Dawley
- Design: regimen Single, gender Male, age 6 weeks
- experimentalContext: in vivo, po, 1000 mg/kg, 9 h, tissue Plasma, route gavage, dose level High
The following compounds are listed with their measured BUN values.

>  <compound>
C[C@H](CS)C(=O)N1CCC[C@H]1C(=O)O [CAPTOPRIL]

>  <BUN [mg/dL]>
24.4

$$$$
>  <compound>
CCc1cc(C(N)=S)ccn1 [ETHIONAMIDE]

>  <BUN [mg/dL]>
16.4

$$$$
>  <compound>
O=C(O)c1cn(C2CC2)c2cc(N3CCNCC3)c(F)cc2c1=O [CIPROFLOXACIN]

>  <BUN [mg/dL]>
11

$$$$
>  <compound>
O=C(O)c1cc(/N=N/c2ccc(S(=O)(=O)Nc3ccccn3)cc2)ccc1O [SULFASALAZINE]

>  <BUN [mg/dL]>
8.6

$$$$

###

- Species on record: Rattus norvegicus
- assayInfo: Open TG-GATES - Regimen: Single
- Assay type: toxicity, organism-based, Sprague-Dawley
- Design: regimen Single, gender Male, age 6 weeks
- experimentalContext: in vivo, po, 0 mg/kg, 24 h, tissue Blood, route gavage, dose level Control

>  <molecule>
CSc1ccc2c(c1)N(CCC1CCCCN1C)c1ccccc1S2 (stereo not given) [THIORIDAZINE]

>  <MCH>
22 pg

$$$$
>  <molecule>
Cn1c(=O)c2[nH]cnc2n(C)c1=O.O [THEOPHYLLINE]

>  <MCH>
20.8 pg

$$$$
>  <molecule>
O=C(O)c1cc(/N=N/c2ccc(S(=O)(=O)Nc3ccccn3)cc2)ccc1O [SULFASALAZINE]

>  <MCH>
21.9 pg

$$$$
>  <molecule>
CN(C)CCC=C1c2ccccc2CCc2ccccc21 [AMITRIPTYLINE]

>  <MCH>
21.2 pg

$$$$
>  <molecule>
O=C(O)c1cn(C2CC2)c2cc(N3CCNCC3)c(F)cc2c1=O [CIPROFLOXACIN]

>  <MCH>
22 pg

$$$$
>  <molecule>
Clc1ccccc1CN1CCc2sccc2C1 [TICLOPIDINE]

>  <MCH>
21.5 pg

$$$$
>  <molecule>
NC(=O)N/N=C/c1ccc([N+](=O)[O-])o1 [NITROFURAZONE]

>  <MCH>
22 pg

$$$$
>  <molecule>
NC(=O)N1c2ccccc2C=Cc2ccccc21 [CARBAMAZEPINE]

>  <MCH>
21.5 pg

$$$$
>  <molecule>
CCc1cc(C(N)=S)ccn1 [ETHIONAMIDE]

>  <MCH>
21.8 pg

$$$$
>  <molecule>
COc1ccc(Cc2nccc3cc(OC)c(OC)cc23)cc1OC [PAPAVERINE]

>  <MCH>
21 pg

$$$$
